The reader will find reported binding signal (PBM E-score (-0.5 to 0.5)) values listed item by item below.
Target: end-3 (F58E10.5) (Caenorhabditis elegans) (UniProt Q9XUW7)
Sequence: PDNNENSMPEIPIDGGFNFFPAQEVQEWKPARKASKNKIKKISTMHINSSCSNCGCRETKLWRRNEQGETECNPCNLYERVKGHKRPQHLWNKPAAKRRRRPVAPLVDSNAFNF
OBSERVED_PROPERTY: binding signal (PBM E-score (-0.5 to 0.5))

PRIMARY_SEQUENCE | RESULT
AGATAAGC (double strand) [8-mer AGATAAGC] | 0.493
GATAAGAA (double strand) [8-mer GATAAGAA] | 0.488
CTTATCTC (double strand) [8-mer CTTATCTC] | 0.496
AGATAACG (double strand) [8-mer AGATAACG] | 0.49
AAGATAAG (double strand) [8-mer AAGATAAG] | 0.493
AGATAAGG (double strand) [8-mer AGATAAGG] | 0.496
